Test system: HaCaT
protocol: Cytotoxicity against human HaCaT cells up to 150 uM by MTT assay relative to control
Type: cell-based
Where a SMILES comes first, the peptide text is derived from it.
measured-property: Activity (%)
Return type: number; implicit unit %.

Recorded Activity, per entry:
CC[C@H](C)[C@H](NC(=O)[C@H](CS)NC(=O)[C@@H](NC(=O)[C@@H](NC(=O)[C@H](CCCNC(=N)N)NC(=O)[C@H](C)NC(=O)[C@@H](NC(=O)[C@H](CC(N)=O)NC(=O)[C@@H](NC(=O)[C@H](CCCNC(=N)N)NC(=O)[C@H](Cc1ccccc1)NC(=O)[C@H](CCCNC(=N)N)NC(=O)[C@@H](NC(=O)[C@@H](N)CS)C(C)C)[C@@H](C)O)[C@@H](C)O)[C@@H](C)O)C(C)C)C(=O)N[C@@H](C)C(=O)N1CCC[C@H]1C(=O)O (H-CVRFRTNTARTVCIAP-OH) | 15
CC(C)[C@H](NC(=O)[C@H](CO)NC(=O)[C@H](CCCNC(=N)N)NC(=O)[C@H](CS)NC(=O)[C@H](CO)NC(=O)[C@@H](NC(=O)[C@H](CCCNC(=N)N)NC(=O)[C@H](Cc1ccccc1)NC(=O)[C@@H](N)Cc1ccccc1)[C@@H](C)O)C(=O)N[C@@H](CS)C(=O)O (H-FFRTSCRSVC-OH) | 13
CC(C)[C@H](NC(=O)[C@H](CO)NC(=O)[C@H](CCCNC(=N)N)NC(=O)[C@H](CS)NC(=O)[C@@H](NC(=O)[C@H](CCCNC(=N)N)NC(=O)[C@@H](N)Cc1ccccc1)[C@@H](C)O)C(=O)N[C@@H](CS)C(=O)O (H-FRTCRSVC-OH) | 2
CC(C)[C@H](NC(=O)[C@H](CCCNC(=N)N)NC(=O)[C@H](Cc1ccccc1)NC(=O)[C@H](CS)NC(=O)[C@H](CCCNC(=N)N)NC(=O)[C@@H](N)[C@@H](C)O)C(=O)N[C@@H](CS)C(=O)N[C@@H](CO)C(=O)O (H-TRCFRVCS-OH) | 9
OC[C@H]1O[C@@H](Oc2ccc(O)cc2)[C@H](O)[C@@H](O)[C@@H]1O [ARBUTIN] | 31
CC(C)[C@H](NC(=O)[C@H](CCCNC(=N)N)NC(=O)[C@H](Cc1ccccc1)NC(=O)[C@H](CS)NC(=O)[C@H](CCCNC(=N)N)NC(=O)[C@H](CO)NC(=O)[C@@H](N)[C@@H](C)O)C(=O)N[C@@H](CS)C(=O)O (H-TSRCFRVC-OH) | 9
CC[C@H](C)[C@H](NC(=O)[C@H](CS)NC(=O)[C@H](CCCNC(=N)N)NC(=O)[C@H](CO)NC(=O)[C@@H](N)[C@@H](C)O)C(=O)N[C@@H](Cc1ccccc1)C(=O)N[C@@H](Cc1ccc(O)cc1)C(=O)N[C@@H](CCCNC(=N)N)C(=O)N[C@@H](CCCNC(=N)N)C(=O)N[C@@H](CS)C(=O)N[C@H](C(=O)N[C@@H](CS)C(=O)N[C@@H](CO)C(=O)O)C(C)C (H-TSRCIFYRRCVCS-OH) | 29
CC(C)[C@H](N)C(=O)N[C@H](C(=O)N[C@@H](CCCCN)C(=O)N[C@@H](CS)C(=O)N[C@@H](CO)C(=O)N[C@@H](Cc1ccccc1)C(=O)N[C@@H](CCCNC(=N)N)C(=O)N1CCC[C@H]1C(=O)NCC(=O)N[C@@H](CO)C(=O)N1CCC[C@H]1C(=O)N[C@@H](C)C(=O)N1CCC[C@H]1C(=O)N[C@@H](CCCNC(=N)N)C(=O)N[C@@H](CS)C(=O)N[C@@H](CCCCN)C(=O)O)C(C)C (H-VVKCSFRPGSPAPRCK-OH) | 10

QUERY: Quick one: Activity of CC[C@H](C)[C@H](NC(=O)[C@H](C)NC(=O)[C@@H]1CCCN1C(=O)[C@@H](NC(=O)[C@@H](N)Cc1ccccc1)C(C)C)C(=O)N[C@@H](CC(C)C)C(=O)N[C@@H](CS)C(=O)N[C@@H](CO)C(=O)N[C@H](C(=O)N[C@@H](CC(C)C)C(=O)N[C@@H](CCCCN)C(=O)N[C@H](C(=O)N[C@@H](CS)C(=O)O)[C@@H](C)O)[C@@H](C)CC (H-FVPAILCSILKTC-OH) ?
RESULT: 11

QUERY: Quick one: Activity of CC(C)[C@H](NC(=O)[C@H](CCCNC(=N)N)NC(=O)[C@H](CS)NC(=O)[C@H](CO)NC(=O)[C@H](CCCNC(=N)N)NC(=O)[C@H](Cc1ccccc1)NC(=O)[C@@H](N)Cc1ccccc1)C(=O)N[C@@H](CS)C(=O)O (H-FFRSCRVC-OH) ?
RESULT: 5

QUERY: Quick one: Activity of C[C@H](NC(=O)[C@H](CO)NC(=O)[C@H](CS)NC(=O)[C@H](CO)NC(=O)[C@@H](NC(=O)[C@H](CCCNC(=N)N)NC(=O)[C@@H](N)Cc1ccccc1)[C@@H](C)O)C(=O)N[C@@H](CS)C(=O)O (H-FRTSCSAC-OH) ?
RESULT: 7

Source listed as ChEMBL document CHEMBL4325834.
